# Percent Effect annotations
System: Wolbachia pipientis
assay comment: Anti-Wolbachia Cell-Based Screen
Type: functional
Set-up: scale not given: in the data most compounds retested in dose-response had high values
conditions used: 5 µM
Hit rate of the full screen: of about 48,000 compounds, about 13,000 (27%) showed an effect of 50% or more. Some of the results follow.
Entry rule: numbers only, all in %.

Consider the following illustrative entries.
compound: CC(C)N1CCC(C(=O)N2CCN(c3cccc(C(=O)O)c3)CC2)CC1
unit: %
observed result: 106.6
//
compound: COc1ccc(OC)c(CCNC(=O)NC(C)Cn2ccnc2)c1 (centres undefined)
unit: %
observed result: -5.904
//
compound: CC(C)N1CCCC(C(=O)N2CCN(c3cnn(C)c(=O)c3)CC2)C1 (centres undefined)
unit: %
observed result: -17.55

# Percent Effect of CC(C)N1CCCC2(CCN(Cc3nncn3C(C)C)C2)C1=O (centres undefined) = 92.74

Percent Effect in this record for "CCS(=O)(=O)c1ncc(CN(C)Cc2cccc(OC)c2)n1CCOC" : -4.749

Percent Effect reading for "COc1cccc(SCCCn2cnc3c(N)ncnc32)c1" : 97.7

Lab note: measured Percent Effect of "CCN1CC2(CCC1=O)CCN(Cc1nncn1C)CC2" was -22.02

What the record says about "O[C@H]1[C@H](NCCc2ccccn2)c2ccccc2C12CCNCC2" : Percent Effect is 4.411

Lab note: CN(Cc1ccccc1)CC(O)Cn1cnc2c(cnn2C)c1=O (centres undefined) gave Percent Effect of -10.76
